test system: Human erythrocytes (O(I)+); assay: Hemolysis assay; format: cell-based; details: 1 h, 37 °C, PBS pH 7.4
property: ED50, effective dose causing 50% of erythrocytes hemolysis (µM)
Expressed in µM, but write only the number.

C=C(C)C1C2CC3(C)C4=CCC5C(C)(C)C(OC6OCC(O)C(O)C6OC6OC(C)C(OC7OC(CO)C(O)C(O)C7O)C(O)C6OC6OCC(O)C(O)C6O)CCC5(C)C4CCC13C(=O)O2 (stereo not drawn); 6.16
CC(=O)OC1CC2(C)C3=CCC4C(C)(C)C(OC5OCC(O)C(O)C5OC5OC(C)C(OC6OC(CO)C(O)C(O)C6O)C(O)C5OC5OCC(O)C(O)C5O)CCC4(C)C3CCC23C(=O)OC(C)(C=CC=C(C)C)C13 (stereo not drawn) [Compound 5]; 7.02
C=C(C)CCCC1(C)OC(=O)C23CCC4C(=CCC5C(C)(C)C(OC6OCC(OS(=O)(=O)[O-])C(O)C6OC6OC(C)C(OC7OC(CO)C(O)C(OC8OC(CO)C(O)C(OC)C8O)C7O)C(O)C6OC6OCC(O)C(O)C6O)CCC45C)C2(C)CC(=O)C13.[Na+] (stereo not drawn) [Cucumarioside A2-2, reference compound]; 0.95
C=C(C)C1C2CC3(C)C4=CCC5C(C)(C)C(OC6OCC(O)C(O)C6OC6OC(C)C(OC7OC(COS(=O)(=O)O)C(O)C(OC8OCC(O)C(OC)C8O)C7O)C(O)C6O)CCC5(C)C4CCC13C(=O)O2 (stereo not drawn); 2.85
CC(=O)OC1CC2(C)C3=CCC4C(C)(C)C(OC5OCC(O)C(O)C5OC5OC(C)C(OC6OC(CO)C(O)C(O)C6O)C(O)C5OC5OCC(O)C(O)C5O)CCC4(C)C3CCC23C(=O)OC(C)(C=CC=C(C)C)C13 (stereo not drawn) [Compound 2]; 4.08

Then there is this compound:
What value of measured ED50, effective dose causing 50% of erythrocytes hemolysis is listed for C=C(C)C1C2CC3(C)C4=CCC5C(C)(C)C(OC6OCC(O)C(O)C6OC6OC(C)C(OC7OC(CO)C(O)C(OC8OC(CO)C(O)C(OC)C8O)C7O)C(O)C6OC6OCC(O)C(O)C6O)CCC5(C)C4CCC13C(=O)O2 (stereo not drawn) ? 4.07

Where these numbers come from: paper PMC8951750
